Assay: Selectivity ratio of MHC10 for BALB/C mouse erythrocytes to MIC for bacteria
Format: toxicity
Where a SMILES comes first, the peptide text is derived from it. Bridges are numbered along the chain shown (N, C = ends). [ ]: non-standard residue; d: D form. The star is where a group is joined. X1 = CC[C@H](C)CCCCC(=O)*; Dab = NCC[C@H](N)C(=O)O
quantity-measured: selectivity ratio

-- ask # return recorded selectivity ratio for input CC[C@H](C)[C@H](NC(=O)[C@H](CCCNC(=N)N)NC(=O)[C@H](CCCCN)NC(=O)[C@H](Cc1ccccc1)NC(=O)[C@H](Cc1ccccc1)NC(=O)CN)C(=O)N[C@@H](CCCNC(=N)N)C(=O)N[C@H](C(=O)N[C@@H](Cc1ccccc1)C(=O)N[C@@H](Cc1ccccc1)C(N)=O)[C@@H](C)O (H-GFFKRIRTFF-NH2)
-- reply 19

-- ask # return recorded selectivity ratio for input CC[C@H](C)CCCCC(=O)N[C@@H](CCN)C(=O)N[C@H](C(=O)N[C@@H](CCN)C(=O)N[C@H]1CCNC(=O)[C@H]([C@@H](C)O)NC(=O)[C@H](CCN)NC(=O)[C@H](CCN)NC(=O)[C@H](CC(C)C)NC(=O)[C@@H](Cc2ccccc2)NC(=O)[C@H](CCN)NC1=O)[C@@H](C)O (X1-[Dab]T[Dab][Dab][Dab][dF]L[Dab][Dab]T; lactam 4-C)
-- reply 4150

-- ask # return recorded selectivity ratio for input CC(C)C[C@H](NC(=O)[C@H](CC(C)C)NC(=O)[C@@H](NC(=O)[C@H](CCCCN)NC(=O)[C@H](Cc1c[nH]c2ccccc12)NC(=O)[C@H](CCCNC(=N)N)NC(=O)[C@H](CCCCN)NC(=O)[C@H](CC(C)C)NC(=O)[C@H](CC(C)C)NC(=O)CN)[C@@H](C)O)C(N)=O (H-GLLKRWKTLL-NH2)
-- reply 8
